Values were extracted from patent US20230265151A1.

Recorded EC50, cAMP, one value per entry.
Molecular target: T1, human GIP receptor (human, UniProt P48546 22-466)
T1 sequence (looked up): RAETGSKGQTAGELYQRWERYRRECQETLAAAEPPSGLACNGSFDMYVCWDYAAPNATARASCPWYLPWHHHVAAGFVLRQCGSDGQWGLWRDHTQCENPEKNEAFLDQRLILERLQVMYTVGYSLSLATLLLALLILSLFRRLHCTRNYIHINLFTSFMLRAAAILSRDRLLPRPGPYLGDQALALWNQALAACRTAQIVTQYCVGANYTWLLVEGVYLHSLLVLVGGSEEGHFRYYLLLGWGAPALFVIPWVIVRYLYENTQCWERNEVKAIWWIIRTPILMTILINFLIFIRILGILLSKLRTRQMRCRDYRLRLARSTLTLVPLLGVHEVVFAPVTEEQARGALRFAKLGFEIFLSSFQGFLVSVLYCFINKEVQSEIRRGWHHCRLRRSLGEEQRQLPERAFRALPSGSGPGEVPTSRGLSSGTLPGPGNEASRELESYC
Assay: cell-based or functional assay

BINDER	UNIT TEXT	EC50, cAMP
YXEGTXTSDXXIXLDXKAQXEXIKXLIEGGPSSGAPPPS (Aib2, αMeF(2F)6, 4Pal10, Aib11, αMeL13, Orn16, Aib20, αMeF22, αMeF25, K17 and K24: K(AEEA2-(γ-Glu)-CO-(CH2)12-CO2H), C-terminal NH2) [Example 121]	nM	0.0271
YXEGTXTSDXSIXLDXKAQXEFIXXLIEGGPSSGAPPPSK (Aib2, αMeF(2F)6, 4Pal10, αMeL13, Orn16, Aib20, D-Glu24, αMeY25, K17 and K40: K(AEEA2-(γ-Glu)-CO-(CH2)14-CH3), C-terminal NH2) [Example 25]	nM	0.00243
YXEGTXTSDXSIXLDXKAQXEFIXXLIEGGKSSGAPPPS (Aib2, αMeF(2F)6, 4Pal10, αMeL13, Orn16, Aib20, D-Glu24, αMeY25, K17 and K31: K((εK)-AEEA-(γ-Glu)-CO-(CH2)12-CO2H), C-terminal NH2) [Example 36]	nM	0.0185
YXEGTXTSDXSIXLDXKAQXEXIKXLIEGGPSSGAPPPS (Aib2, αMeF(2F)6, Ac5c10, αMeL13, Orn16, Aib20, αMeF22, αMeY25, K17 and K24: K(AEEA2-(γ-Glu)-CO-(CH2)12-CO2H), C-terminal NH2) [Example 120]	nM	0.0866
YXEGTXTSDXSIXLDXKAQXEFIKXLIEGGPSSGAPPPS (Aib2, αMeF(2F)6, 4Pal10, αMeL13, Orn16, Aib20, αMeY25, K17 and K24: K(AEEA2-(γ-Glu)-CO-(CH2)10-CH3), C-terminal NH2) [Example 138]	nM	0.0197
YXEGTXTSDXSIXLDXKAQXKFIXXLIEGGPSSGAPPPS (Aib2, αMeF(2F)6, 4Pal10, αMeL13, Orn16, Aib20, D-Glu24, αMeY25, K17 and K21: K(AEEA2-(γ-Glu)-CO-(CH2)12-CO2H), C-terminal NH2) [Example 15]	nM	0.0133
